species on record: Rattus norvegicus; assay: DrugMatrix - Regimen: Daily Repeat; assay type: toxicity, organism-based, Sprague-Dawley; set-up: regimen Daily Repeat, gender Male, age 6-8 weeks; settings: in vivo, po, 0 mg/kg, 120 h, tissue Blood, route oral GAVAGE, dose level Control, time 5 day, vehicle 100 % WATER
# ABSOLUTE SEGMENTED NEUTROPHIL annotations
Recorded endpoint: ABSOLUTE SEGMENTED NEUTROPHIL

C[C@](N)(Cc1ccc(O)c(O)c1)C(=O)O [METHYLDOPA] ... 1313.67 CELLS/uL
Cc1onc(-c2ccccc2Cl)c1C(=O)N[C@@H]1C(=O)N2[C@@H]1SC(C)(C)[C@@H]2C(=O)O [CLOXACILLIN] ... 968.5 CELLS/uL
CNNCc1ccc(C(=O)NC(C)C)cc1 [PROCARBAZINE] ... 762.83 CELLS/uL
NCCCCCC(=O)O [AMINOCAPROIC ACID] ... 968.5 CELLS/uL
Clc1cccc(Cl)c1N=C1NCCN1 [CLONIDINE] ... 2102.33 CELLS/uL
C[C@H]1c2cccc(O)c2C(=O)C2=C(O)[C@]3(O)C(=O)C(C(N)=O)=C(O)[C@@H](N(C)C)[C@@H]3[C@@H](O)[C@@H]21.O [DOXYCYCLINE] ... 674.83 CELLS/uL
C[C@H](CS)C(=O)N1CCC[C@H]1C(=O)O [CAPTOPRIL] ... 1187.83 CELLS/uL
Cn1cc[nH]c1=S [METHIMAZOLE] ... 503 CELLS/uL
CC(O)CO (stereo not given) [PROPYLENE GLYCOL] ... 968.5 CELLS/uL
CN(C)CCCN1c2ccccc2Sc2ccc(Cl)cc21 [CHLORPROMAZINE] ... 783 CELLS/uL

###

species on record: Rattus norvegicus; assay: DrugMatrix - Regimen: Daily Repeat; type: toxicity, organism-based, Sprague-Dawley; parameters: regimen Daily Repeat, gender Male, age 6-8 weeks; conditions: in vivo, ip, 2 mg/kg, 120 h, tissue Blood, route intraperitoneal, dose level High, time 5 day, vehicle 100 % SALINE
Recorded endpoint: ABSOLUTE SEGMENTED NEUTROPHIL (cells/µL)

LEAD (II) ACETATE ... 2470

###

species on record: Rattus norvegicus; test: DrugMatrix - Regimen: Daily Repeat; format: toxicity, organism-based, Sprague-Dawley; design: regimen Daily Repeat, gender Male, age 6-8 weeks; conditions: in vivo, po, 0 mg/kg, 120 h, tissue Plasma, route oral GAVAGE, dose level Control, time 5 day, […]
# BLOOD UREA NITROGEN annotations
Recorded endpoint: BLOOD UREA NITROGEN (mg/dL)

CC(C)(Oc1ccc(Cl)cc1)C(=O)O ... 15.67
CCC(C)n1ncn(-c2ccc(N3CCN(c4ccc(OCC5COC(Cn6cncn6)(c6ccc(Cl)cc6Cl)O5)cc4)CC3)cc2)c1=O (configuration not stated) ... 16
CN(C)c1nc(N(C)C)nc(N(C)C)n1 ... 14.67
O=c1oc2ccccc2c(O)c1Cc1c(O)c2ccccc2oc1=O ... 14.17
Cc1oncc1C(=O)Nc1ccc(C(F)(F)F)cc1 [LEFLUNOMIDE] ... 13
OC(Cn1cncn1)(Cn1cncn1)c1ccc(F)cc1F ... 16
O=NN(CCCl)C(=O)NC1CCCCC1 ... 14.67

###

# LYMPHOCYTE annotations
organism: Rattus norvegicus; assay: DrugMatrix - Regimen: Daily Repeat; assay type: toxicity, organism-based, Sprague-Dawley; design: regimen Daily Repeat, gender Male, age 6-8 weeks; details: in vivo, po, 0 mg/kg, 72 h, tissue Blood, route oral GAVAGE, dose level Control, time 3 day, vehicle .5 % CMC
Recorded endpoint: LYMPHOCYTE (%)

CC(C)(C)NC(=O)[C@@H]1C[C@@H]2CCCC[C@@H]2CN1C[C@@H](O)[C@H](Cc1ccccc1)NC(=O)[C@H](CC(N)=O)NC(=O)c1ccc2ccccc2n1 ... 89.33
CCn1cc(C(=O)O)c(=O)c2cc(F)c(N3CCNCC3)cc21 [NORFLOXACIN] ... 91.67
Nc1ccn([C@H]2CC[C@@H](CO)O2)c(=O)n1 [ZALCITABINE] ... 75.17
CCCCc1oc2ccccc2c1C(=O)c1cc(I)c(OCCN(CC)CC)c(I)c1 [AMIODARONE] ... 84.8
CCOP(=S)(OCC)Oc1nc(Cl)c(Cl)cc1Cl [CHLORPYRIFOS] ... 86.18
CCCN1C[C@H](CSC)C[C@@H]2c3cccc4[nH]cc(c34)C[C@H]21 [PERGOLIDE] ... 88.33
CC1CC(OC(=O)C(O)c2ccccc2)CC(C)(C)C1 (centres undefined) [CYCLANDELATE] ... 87.5
Cc1ccc2cc3c(ccc4ccccc43)c3c2c1CC3 [3-METHYLCHOLANTHRENE] ... 80.78
COc1nc(C)nc(Cl)c1N=C1NCCN1 [MOXONIDINE] ... 90.33

###

species on record: Rattus norvegicus; test: DrugMatrix - Regimen: Daily Repeat; assay type: toxicity, organism-based, Sprague-Dawley; design: regimen Daily Repeat, gender Male, age 6-8 weeks; conditions: in vivo, ip, 2 mg/kg, 120 h, tissue Blood, route intraperitoneal, dose level High, time 5 day, vehicle 100 % SALINE
Recorded endpoint: ABSOLUTE EOSINOPHIL (cells/µL)

LEAD (II) ACETATE ... 150

###

organism: Rattus norvegicus; test: DrugMatrix - Regimen: Daily Repeat; format: toxicity, organism-based, Sprague-Dawley; parameters: regimen Daily Repeat, gender Male, age 6-8 weeks; conditions: in vivo, po, 0 mg/kg, 120 h, tissue Plasma, route oral GAVAGE, dose level Control, time 5 day, […]
# URIC ACID annotations
Recorded endpoint: URIC ACID

CC(C)(Oc1ccc(Cl)cc1)C(=O)O ... 1.47 mg/dL
CCC(C)n1ncn(-c2ccc(N3CCN(c4ccc(OCC5COC(Cn6cncn6)(c6ccc(Cl)cc6Cl)O5)cc4)CC3)cc2)c1=O (centres undefined) ... 1.12 mg/dL
OC(Cn1cncn1)(Cn1cncn1)c1ccc(F)cc1F ... 1.12 mg/dL
C[C@H]1O[C@@H](O[C@H]2[C@@H](O)C[C@H](O[C@H]3[C@@H](O)C[C@H](O[C@H]4CC[C@@]5(C)[C@H](CC[C@@H]6[C@@H]5C[C@@H](O)[C@]5(C)[C@@H](C7=CC(=O)OC7)CC[C@]65O)C4)O[C@@H]3C)O[C@@H]2C)C[C@H](O)[C@@H]1O ... 0.78 mg/dL

###

organism: Rattus norvegicus; test: DrugMatrix - Regimen: Daily Repeat; format: toxicity, organism-based, Sprague-Dawley; set-up: regimen Daily Repeat, gender Male, age 6-8 weeks; conditions: in vivo, po, 0 mg/kg, […], tissue Plasma, route oral GAVAGE, dose level Control, time 14 day, vehicle .5 % CMC
# TOTAL BILIRUBIN annotations
Recorded endpoint: TOTAL BILIRUBIN (mg/dL)

ClC(Cl)Br ... 0.22
COc1ccc(C(=O)Nc2c(Cl)c[n+]([O-])cc2Cl)c2ccc(C(F)(F)F)nc12 ... 0.37
ClC(Br)Br ... 0.22
CCOP(=S)(OCC)Oc1nc(Cl)c(Cl)cc1Cl ... 0.45

###

# PHOSPHORUS annotations
organism: Rattus norvegicus; assay: DrugMatrix - Regimen: Daily Repeat; format: toxicity, organism-based, Sprague-Dawley; set-up: regimen Daily Repeat, gender Male, age 6-8 weeks; conditions: in vivo, iv, 0 mg/kg, 72 h, tissue Plasma, dose level Control, time 3 day, vehicle 100 % SALINE
Starred links: 1 amine or outer side, 2 acyl side, 3 side chain; linkers in the order of their positions; H or OH if unused. Positions of bridges follow the written chain, without caps; N, C: chain ends. Non-standard residues stand in square brackets, D forms with d. Residues, ends and D or L forms follow the SMILES beside them. Chains are numbered I, II in the order given. Actinocin(9to1) = Cc1c2oc3c(C)ccc(C(=O)[*:1])c3nc-2c(C(=O)[*:2])c(N)c1=O; NMeV = CN[C@H](C(=O)O)C(C)C; Sar = CNCC(=O)O
Recorded endpoint: PHOSPHORUS (mg/dL)

COc1cc2c3cc1Oc1cc(ccc1O)C[C@@H]1c4c(cc(OC)c(O)c4Oc4ccc(cc4)C[C@@H]3N(C)CC2)CC[N+]1(C)C.[Cl-] ... 11.63
CC[C@]1(O)C[C@H]2CN(CCc3c([nH]c4ccccc34)[C@@](C(=O)OC)(c3cc4c(cc3OC)N(C=O)[C@H]3[C@@](O)(C(=O)OC)[C@H](OC(C)=O)[C@]5(CC)C=CCN6CC[C@]43[C@@H]65)C2)C1 [VINCRISTINE] ... 10.87
Cc1ccc(N(CC2=NCCN2)c2cccc(O)c2)cc1 [PHENTOLAMINE] ... 11.75
Cc1c2oc3c(C)ccc(C(=O)N[C@@H]4C(=O)N[C@H](C(C)C)C(=O)N5CCC[C@H]5C(=O)N(C)CC(=O)N(C)[C@@H](C(C)C)C(=O)O[C@@H]4C)c3nc-2c(C(=O)N[C@@H]2C(=O)N[C@H](C(C)C)C(=O)N3CCC[C@H]3C(=O)N(C)CC(=O)N(C)[C@@H](C(C)C)C(=O)O[C@@H]2C)c(N)c1=O [DACTINOMYCIN] (I: T[dV]P[Sar][NMeV] / II: T[dV]P[Sar][NMeV]; ester I:1-I:C, II:1-II:C; linker I:N-II:N via Actinocin(9to1)) ... 11.27
